assayed.target: human M1 receptor (hCHRM1) (Homo sapiens, UniProt P11229)
Sequence (P11229 whole entry): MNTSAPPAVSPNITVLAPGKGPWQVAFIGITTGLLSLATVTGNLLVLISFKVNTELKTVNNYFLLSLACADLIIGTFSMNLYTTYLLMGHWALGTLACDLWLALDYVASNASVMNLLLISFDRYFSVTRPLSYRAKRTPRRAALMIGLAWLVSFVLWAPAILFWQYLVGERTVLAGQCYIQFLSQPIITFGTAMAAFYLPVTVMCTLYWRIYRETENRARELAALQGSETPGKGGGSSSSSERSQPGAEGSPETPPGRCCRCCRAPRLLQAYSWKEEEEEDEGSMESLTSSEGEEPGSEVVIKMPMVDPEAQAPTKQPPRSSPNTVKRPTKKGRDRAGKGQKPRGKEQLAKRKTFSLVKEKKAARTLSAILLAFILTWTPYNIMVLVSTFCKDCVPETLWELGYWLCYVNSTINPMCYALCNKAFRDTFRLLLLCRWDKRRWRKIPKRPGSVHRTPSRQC
protocol.summary: Measurement of M1 receptor positive allosteric modulator (M1PAM) activity, calcium fluorescence in CHO-K1 cells;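 also: potency reported as IP value in nM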
condition.set: inflection point in the concentration-dependent curve; acetylcholine at EC20 (final 0.6-0.8 nM); CHO-K1 cells expressing human M1; Fluo-4, FLIPRtetra; read-out: IP value
pEC50: −log10 of the molar value.
Tag: label 1 if measured pEC50 is not below 7, label 0 if it is.

Incoming: Does pEC50 meet or surpass 7 for CCC(F)(F)COc1ncnc2c1C(=O)N(Cc1ccc(-c3cn(C)nc3C)cc1)C2 ?
Outgoing: label 1

Incoming: Does pEC50 meet or surpass 7 for CCn1cc(-c2ccc(CN3Cc4ncnc(OCC(F)F)c4C3=O)c(F)c2)cn1 ?
Outgoing: label 1

Incoming: Does pEC50 meet or surpass 7 for CCn1cc(-c2ccc(CN3Cc4ncnc(OCC(F)(F)CC)c4C3=O)cc2)cn1 ?
Outgoing: label 1

Incoming: Does pEC50 meet or surpass 7 for O=C1c2c(ccnc2OCC(F)F)CN1Cc1ccc(-c2cnn(CC(F)F)c2)cc1 ?
Outgoing: label 1

Incoming: Does pEC50 meet or surpass 7 for CCC(F)(F)COc1nccc2c1C(=O)N(Cc1ccc(-c3cnn(CC(F)(F)F)c3)cc1)C2 ?
Outgoing: label 1

Incoming: Does pEC50 meet or surpass 7 for CC(F)(F)COc1nccc2c1C(=O)N(Cc1ccc(-c3ccns3)cc1)C2 ?
Outgoing: label 0

Incoming: Does pEC50 meet or surpass 7 for CCC(F)(F)COc1nccc2c1C(=O)N(Cc1ccc(-c3cnn(CC(F)F)c3)cc1)C2 ?
Outgoing: label 1

Incoming: Does pEC50 meet or surpass 7 for Cc1nn(C)cc1-c1ccc(CN2Cc3ncnc(OCC(F)(F)F)c3C2=O)cc1 ?
Outgoing: label 1

Incoming: Does pEC50 meet or surpass 7 for CCC(F)(F)COc1nccc2c1C(=O)N(Cc1ccc(-c3cnn(CC(F)(F)F)c3)cc1F)C2 ?
Outgoing: label 1

Incoming: Does pEC50 meet or surpass 7 for O=C1c2c(ccnc2OCC(F)F)CN1Cc1ccc(-c2cnn(CC(F)(F)F)c2)cc1F ?
Outgoing: label 1

Incoming: Does pEC50 meet or surpass 7 for Cn1cc(-c2ccc(CN3Cc4ccnc(OCC(C)(F)F)c4C3=O)c(F)c2)nn1 ?
Outgoing: label 1

Incoming: Does pEC50 meet or surpass 7 for Cc1nn(C)cc1-c1ccc(CN2Cc3ccnc(OCC(F)(F)C(F)F)c3C2=O)cc1 ?
Outgoing: label 0

Incoming: Does pEC50 meet or surpass 7 for Cc1nn(C)cc1-c1cc(F)c(CN2Cc3ncnc(OCC(F)F)c3C2=O)s1 ?
Outgoing: label 1

Values from patent US10208046B2
